- Study system: Glycogen synthase kinase-3 beta (Homo sapiens)
- Method notes: concentration-response blocking of human GSK3B – biochemical, luminescence, cell-free homogeneous, retest, dose response (AID 434954)
Parameter: EC50

1. Cc1ccc2c(c1)C1CN(C)CCC1N2C(=S)Nc1ccc(Cl)cc1Cl (stereo not drawn) [SMR000385491] | > 300 µM
2. CC[n+]1c(/C=C/N(C)c2ccccc2)oc2ccccc21 [SMR000184373] | > 300 µM
3. CCOc1cccc(C(=O)Nc2cccc(-c3nc4ncccc4o3)c2C)c1 | > 300 µM

* * *

- Study system: Glycogen synthase kinase-3 beta (Homo sapiens, UniProt P49841)
- Sequence (P49841 whole entry): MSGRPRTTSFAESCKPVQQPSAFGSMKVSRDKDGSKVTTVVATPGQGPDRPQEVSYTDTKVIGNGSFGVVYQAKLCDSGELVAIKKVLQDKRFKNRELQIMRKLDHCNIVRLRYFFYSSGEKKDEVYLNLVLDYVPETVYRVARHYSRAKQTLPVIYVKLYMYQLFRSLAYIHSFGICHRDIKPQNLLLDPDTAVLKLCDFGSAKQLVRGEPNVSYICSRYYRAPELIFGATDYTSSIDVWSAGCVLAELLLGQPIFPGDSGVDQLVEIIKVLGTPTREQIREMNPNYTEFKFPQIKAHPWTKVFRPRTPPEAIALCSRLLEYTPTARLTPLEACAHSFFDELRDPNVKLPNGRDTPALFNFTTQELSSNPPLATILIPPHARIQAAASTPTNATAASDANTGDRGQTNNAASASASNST
- Method notes: concentration-response blocking of human GSK3B – biochemical, luminescence, cell-free homogeneous, retest, dose response (AID 434954)
pEC50: −log10 of the molar value.
Parameter: pEC50

1. Oc1cccc(Nc2nc(-c3ccccc3)nc3ccccc23)c1 | < 3.52
2. CCCCn1nc(NC(=O)c2cccs2)c2cc3cc(OC)ccc3nc21 | 5.03
3. CCOc1cccc(-c2c(C(=O)NN=C(C)c3cccs3)nnn2-c2nonc2N)c1 | 4.01
4. COC(=O)c1nnn(-c2nonc2N)c1COc1ccc(C=O)cc1OC | 4.59
5. CC[n+]1c(/C=C/C=C/c2ccc(N(C)C)cc2)sc2ccccc21 | 4.45
6. O=C(O)c1cccc(-c2ccc(CN=Nc3ccc([N+](=O)[O-])cc3)o2)c1 | < 3.52
7. CN(C)C=NC(=O)C(C#N)C1=Nc2ccccc2CC1 (stereo not given) | 4.70
8. O=c1oc2cc(O)ccc2cc1-c1ccccc1 [7-Hydroxy-3-phenyl-chromen-2-one] | < 3.52
9. COc1ccccc1CNC(=O)OCc1nccnc1C(=O)Nc1ccc(Br)cn1 | < 3.52
10. O=C1N=C(Nc2ccccc2Cl)SC1=Cc1ccc(C(=O)O)cc1 | < 3.52
11. Nc1nc(NCCCN2CCOCC2)nc(Nc2ccccc2F)c1[N+](=O)[O-] | 5.90
12. CCCc1cc(O)c2c(C)cc(=O)oc2c1 | < 3.52
13. COc1ccc(-c2nn(CCC#N)cc2CN=O)cc1 | 4.06
14. CCC(NC(=O)Cc1c(C)c2cc3c(cc2oc1=O)OC(C)(C)CC3)C(=O)O (stereo not given) | < 3.52
15. CCOc1ccccc1NC(=O)N1CCC2(CC1)OCCO2 | < 3.52
16. CC1=C(C#N)C(=O)NC(=O)C1=NNc1ccc(S(N)(=O)=O)cc1 | 6.04
17. CCCCCC(=O)N1CCN(S(=O)(=O)c2ccc3c(c2)OCCCO3)CC1 | < 3.52
18. O=C(Cc1sc(N2CCCCC2)nc1O)Nc1cccc(C(F)(F)F)c1 | < 3.52
19. COCCn1nnnc1C(c1cc2cc(C)ccc2[nH]c1=O)N1CCc2ccccc21 (stereo not given) | < 3.52
20. CCOc1ccc2c(c1)C(NC(C)=O)C(=O)N2CCN1CCOCC1 (stereo not given) | < 3.52
21. CCOC(=O)c1cnc2ccc(C(=O)OC)cc2c1Nc1ccc2c(c1)OCCO2 | 5.04
22. CCCc1cc(=O)oc2cc(C)c3c(C)coc3c12 | < 3.52
23. CCCCc1cc(=O)oc2cc(O)cc(O)c12 [4-butyl-5,7-dihydroxy-2H-chromen-2-one] | 4.82
24. Cc1nc(NCCCn2ccnc2)c2oc3ccccc3c2n1 | < 3.52
25. CN1CCc2c(sc3c2C(=O)NC(c2cccs2)N3)C1 (stereo not given) | < 3.52
26. COC1=CC(CN=Nc2ccc([N+](=O)[O-])cn2)C=C(OC)C1=O | 5.27
27. CN(C)S(=O)(=O)c1cc(NC(=O)CN2CCN(c3ccc(O)cc3)CC2)ccc1Cl | < 3.52
28. N#Cc1c(Nc2ccccc2)sc(C(=O)c2ccccc2)c1N | 4.28
29. CC1(C)CC(=O)C=C(Nc2cccc(Cl)c2Cl)C1 | < 3.52
30. Cc1c(CCOC(=O)CC23CC4CC(CC(C4)C2)C3)sc[n+]1CC(=O)c1ccc(Br)cc1 | < 3.52
31. CCc1c(C(=O)Nc2ccccc2C(N)=O)csc1C | < 3.52
32. CC(C)CCNc1nc(N)c([N+](=O)[O-])c(NCCO)n1 | 5.17
33. COc1ccc(CN=Nc2ccc([N+](=O)[O-])cc2)cc1O | < 3.52
34. CCNc1nc(N)c(C(=C(C#N)C#N)c2ccccc2)s1 | < 3.52
35. COc1cccc2c1cc1c(=O)n(CC(=O)NC3CCCCC3)nc(C)n12 | < 3.52
